- Test system: T-47D breast
- measurement protocol: NCI tumour cell line growth inhibition, 48 h
measurement label: TGI (µM)
One number for each entry, in µM.

Need TGI for each of these molecules.
1. COc1ccc(C2CCc3nc4nc(N)nc(N)c4cc3C2)cc1 (centres undefined)
2. COC1/C=C/C(C)C(OC)CC(O)/C=C/C(C)C(C(C)C(OC)C(C)CCC(=O)C(C)C(C/C=C/N(C)C=O)OC)OC(=O)/C=C/C=C(\C)CC(OC)C(OC)C2=CC(=O)O[C@@H](C(C)C(OC)C1)[C@H]2O (some centres undefined)

44.7
0.151

---

Here we list compounds with their recorded GI50 when tested on SK-MEL-2 melanoma.

{"compound": "COc1cc(/C=C/C(=O)C(=Cc2ccc(F)c(F)c2)C(=O)/C=C/c2ccc(O)c(OC)c2)ccc1O", "assayed system": "SK-MEL-2 melanoma", "value reported": "1.81 µM"}
{"compound": "COc1ccc(CN2c3ccccc3Sc3ccccc32)cc1F", "assayed system": "SK-MEL-2 melanoma", "value reported": "0.476 µM"}
{"compound": "CCCc1cc(=O)oc2c(C(=O)CC(C)C)c(O)c(CC=C(C)C)c(O)c12", "assayed system": "SK-MEL-2 melanoma", "value reported": "9.71 µM"}
{"compound": "CC/C(=N\\Nc1nc2ccccc2n1C)c1ccccn1", "assayed system": "SK-MEL-2 melanoma", "value reported": "0.589 µM"}
{"compound": "COc1cc(CNC(=O)/C=C/C=C/c2ccc3c(c2)OCO3)ccc1OCc1cn(-c2ccc(Cl)c(Cl)c2)nn1", "assayed system": "SK-MEL-2 melanoma", "value reported": "1.74 µM"}
{"compound": "COc1ccc2c(c1)C(=O)c1c-2n(CCCN=[N+]=[N-])c(=O)c2ccccc12", "assayed system": "SK-MEL-2 melanoma", "value reported": "46 µM"}
{"compound": "Cc1ccc(-n2c3c(c4c(CN5CCCCC5)c(O)ccc42)CCc2ccccc2C3=O)cc1", "assayed system": "SK-MEL-2 melanoma", "value reported": "> 100 µM"}
{"compound": "O=C(Oc1cccnc1)c1ccccc1Nc1ccnc(C(F)(F)F)c1", "assayed system": "SK-MEL-2 melanoma", "value reported": "20.2 µM"}

Need GI50 for each of these compounds.
1. Cn1cc(-c2csc(-c3c[nH]c4ncccc34)n2)c2cc(Br)cnc21
2. CN(C)CC(C(=O)c1ccccc1)c1ccccc1 (stereo unspecified)
3. O=S(=O)(NCCNc1nccc(-c2c(-c3cccc(O)c3)nc3sccn23)n1)c1ccc(F)cc1

1. 19.8 µM
2. 3.35 µM
3. 4.49 µM

---

- Tested on: SF-295 CNS
Just give me one of these, please: T = active, F = inactive

{"molecule": "COc1cc2c(cc1OC)C(CCc1ccc(Cl)cc1)N(C)CC2 (stereo not given)", "cat": "F"}
{"molecule": "Cc1ccc(-n2c3c(c4c(CN5CCCCC5)c(O)ccc42)CCc2ccccc2C3=O)cc1", "cat": "F"}
{"molecule": "O=C(CCCn1c2c(sc3ncccc32)c(=O)n2nnc(-c3ccccc3)c12)NCCc1cnc[nH]1", "cat": "F"}
{"molecule": "Cn1cc(-c2csc(-c3c[nH]c4ncccc34)n2)c2cc(Br)cnc21", "cat": "F"}
{"molecule": "O=C1NC(=NCC(CO)c2ccccc2)S/C1=C\\c1ccc2ncccc2c1 (stereo not given)", "cat": "F"}

In this assay, the call recorded for `COc1cc(/C=C/C(=O)C(=Cc2ccc(F)c(F)c2)C(=O)/C=C/c2ccc(O)c(OC)c2)ccc1O` was what?
F

In this assay, the call recorded for `CCN1CCC[C@H]1c1cc(O)c2c(c1OC)C[C@H]1C[C@H]3[C@H](N)C(=O)C(C(N)=O)=C(O)[C@@]3(O)C(=O)C1=C2O` was what?
T

In this assay, the call recorded for `O=C1Cc2cc(CCn3ccnc3)c(Cl)cc2N1` was what?
F

In this assay, the call recorded for `COC(=O)[C@]12CC[C@@H](C)[C@H](C)[C@@H]1C1=CC[C@@H]3[C@@]4(C)C[C@@H](OC(=O)c5ccco5)[C@H](O)[C@@](C)(CO)[C@@H]4[C@H](O)C[C@@]3(C)[C@]1(C)CC2` was what?
F

In this assay, the call recorded for O=C1NC(=NCc2cccs2)SC1Cc1ccc2ncccc2c1 (stereo not given) was what?
F

Reference source: PubChem BioAssay (NCI)
